Could you please report measured Inhibition for the items listed next?
Tested on: Escherichia coli
Details: Concentration 32 ug.mL-1;; ASSAY_TEST Inhibition of Bacterial Growth; detection method Absorption (OD600); MEDIA CAMHB; plate type 384well; NBS; CORNING #3640; time 18 hr
Description: Antibacterial activity against Escherichia coli ATCC 25922 (CO-ADD:GN_001); MIC in CAMBH media using NBS plates, by OD(600)
Entries with a potency or affinity are not part of this list.
Answers are plain numbers, in %.

Cc1nnc2ccc(S(=O)(=O)N(Cc3ccccc3)c3cccc(F)c3)cn12; -6.96
CCOc1ccc(NC(=O)Cn2nc3c(N4CCCC4)nccn3c2=O)cc1; -1.53
CCCNC(=O)Cn1nc2cc(C)nc(Nc3cc(C)cc(C)c3)n2c1=O; 0.71

I have 3 compounds here; please give me Inhibition for each one.
1. COc1cccc(NC(=O)Cn2nc3ccc(-c4ccc(C)c(C)c4)nn3c2=O)c1
2. CCc1nnc2c(S(=O)(=O)N(Cc3cc(F)cc(F)c3)c3ccc(F)cc3)cccn12
3. O=C(Cn1nc2c3sc(N4CCCC4)nc3ncn2c1=O)Nc1ccc(C(F)(F)F)cc1

*A*
1. -17.62
2. -11.24
3. -0.19
